Below, each entry is listed alongside its reported pIC50.
Test system: YAP-dependent transcription in SF268-MCAT_Luc_dox-i-shYAPLevy (Clone 13) cells
Experiment: YAP reporter gene activity assay (MCAT-Luc), SF268
Type: cell-based
Details: Homo sapiens, SF-268; SF268 MCAT_Luc, 24 hrs
The scale used: pIC50 is minus the common logarithm of the concentration in molar units.

// known answers, use as guide
compound | pIC50
COc1ccc(C(N)=O)c(-c2c(Cl)c(F)cc3c2[C@H](C)[C@@](CN[C@H]2CC[C@H](C(=O)NCCCCCc4cccc5c4CN(C4CCC(=O)NC4=O)C5=O)CC2)(c2ccccc2)O3)c1F (stereo partly shown) [Example 31] | 9.55
COc1ccc(C(N)=O)c(-c2c(Cl)c(F)cc3c2[C@H](C)[C@@](CN[C@H]2CC[C@H](C(=O)NCCOCCOCCOCCNC(=O)COc4cc(-c5scnc5C)ccc4CNC(=O)[C@@H]4C[C@@H](O)CN4C(=O)[C@@H](NC(=O)C4(F)CC4)C(C)(C)C)CC2)(c2ccccc2)O3)c1F (atropisomer, axis not shown) [Example 40] | 7.33
COc1ccc(C(N)=O)c(-c2c(Cl)c(F)cc3c2[C@H](C)[C@@](CN[C@H]2CC[C@H](C(=O)N4CCC(CC5CCN(CCn6cccc(CN7CCC(=O)NC7=O)c6=O)CC5)CC4)CC2)(c2ccccc2)O3)c1F (atropisomer, axis not shown) [Example 15] | 8.59

query: I have this compound here, COc1ccc(C(=O)N2CCN(CC3CN(C(=O)[C@H]4CC[C@H](NC[C@]5(c6ccccc6)Oc6cc(F)c(Cl)c(-c7c(C(N)=O)ccc(OC)c7F)c6[C@@H]5C)CC4)C3)CC2)cc1N1CCC(=O)NC1=O (atropisomer, axis not shown) [Example 9] , and I need its recorded pIC50.
result: 8.46
